Biological target: T1, Human SIRPαV2 (CAA71403.1), Extracellular Domain + His-Tag (human, UniProt P78324 31-373)
T1 construct: also called huSIRPαV2; hSIRPαV2; not shown: His-Tag
T1 sequence (P78324 other isoform, or with tags, fused parts or gaps): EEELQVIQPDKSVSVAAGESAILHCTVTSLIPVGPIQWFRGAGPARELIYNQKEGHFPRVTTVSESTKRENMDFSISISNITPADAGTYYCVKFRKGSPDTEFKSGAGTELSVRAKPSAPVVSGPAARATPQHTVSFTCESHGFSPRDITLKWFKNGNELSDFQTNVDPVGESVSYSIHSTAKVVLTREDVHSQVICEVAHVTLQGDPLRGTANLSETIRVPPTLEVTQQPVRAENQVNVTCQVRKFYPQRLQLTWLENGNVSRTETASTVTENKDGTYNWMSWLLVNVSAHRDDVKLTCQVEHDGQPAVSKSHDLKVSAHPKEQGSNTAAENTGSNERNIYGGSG
Test: SPR, antibody captured on Protein A/G, ECD-His analyte, 1:1 fit
measured_endpoint: kon (M⁻¹ s⁻¹)
Output spec: scalar in M⁻¹ s⁻¹, unitless text.

Below, each entry is followed by its recorded kon result.
{"columns": ["binder", "kon, M⁻¹ s⁻¹"],
 "data": [
  ["Antibody E8 (antibody, human IgG1, kappa, L234A L235A, V domains shown) VH: QVQLQESGPGLVRPSETLSLTCTVSGGSIRNYYWSWIRQPPGKGLEWMGFIYDNGRTFYNPSLKSRVTISLDMSMNQFSLKMTSVTAADTAVYYCARVRAYSGIGLDGTDVWGQGTTVTVSS VL: DIVMTQSPLSLPVTPGEPASISCKSSQSLLYSNGYAYLDWYLQRPGQSPQLLIYQGSNRASGVPDRFSGSGSGTDFTLKISRVEAEDVGVFYCMQALQTPLTFGGGTKVEIKR", 435000],
  ["Antibody E7 (antibody, human IgG1, kappa, L234A L235A, V domains shown) VH: QVQLQESGPGLVRPSETLSLTCTVSGGSIRNYYWSWIRQPPGKGLEWIGFIYYNGRTFYNPSLKSRVTISLDTSKNQFSLKMTSVTAADTAVYYCARVRAYSGIGLDGTDVWGQGTTVTVSS VL: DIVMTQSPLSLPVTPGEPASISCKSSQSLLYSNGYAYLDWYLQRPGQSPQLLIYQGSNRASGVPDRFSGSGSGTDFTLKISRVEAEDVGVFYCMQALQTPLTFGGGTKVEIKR", 468000]
]}

With those in mind, consider the next binder.
Tell us which kon value is on record for Antibody A7 (antibody, human IgG1, kappa, L234A L235A, V domains shown) VH: EVQLVESGGGLVQPGGSLRLSCAASGFTLSSYDMHWVRQATGKGLEWVSAIGTAGDTYYTGSVKGRFTISRENAKNSLYLQMNSLRAGDTAVYYCVRGGVWDDAFDIWGQGTMVTVSS VL: DIQMTQSPSSLSASVGDRVTITCRASQGINNYAAWFQQKPGKAPKSLIYTASSLHSGVPSKFSGSGSGTDFTLTISSLQPEDFATYYCQQYVSYPYTFGQGTKLEIKR 933000
